# Test system: COLO 205 colon
# measurement.notes: NCI-60 one-dose screen, 48 h (100 = growth as untreated, 0 = no growth, -100 = all killed)
# cond: 10 µM unless noted
This is part of a sample that, as a whole, favours compounds with a hit. Of some 83,000 tested, about 20% had one in any assay.
quantity.measured: growth (%)
# value in %; strip the unit string

Some entries whose results are on file:
compound	result.units	growth
CC(=O)O[C@H]1[C@H](CC#CC#CC[C@@H]2C[C@]3(C)[C@H]4CC=C5[C@H]6[C@@H](C)[C@H](C)CC[C@]6(C(=O)NCCN(CCN)CCN)CC[C@@]5(C)[C@]4(C)CC[C@H]3C(C)(C)[C@H]2OC(C)=O)C[C@]2(C)[C@H]3CC=C4[C@H]5[C@@H](C)[C@H](C)CC[C@]5(C(=O)NCCN(CCN)CCN)CC[C@@]4(C)[C@]3(C)CC[C@H]2C1(C)C	%	78
COc1ccc(Nc2ncnc3c2sc2nc(C)cc(C)c23)cc1	%	111
O=C1C=CC(=O)N1CO	%	149
CCCCNCC(O)c1cc(-c2ccc(C(F)(F)F)cc2)nc(-c2ccc(C(F)(F)F)cc2)c1 (stereo not drawn)	%	-87.2
COc1ccc(/C=C/C(=O)c2ccc(NC(=O)CSc3nnc(-c4ccc(Cl)cc4)n3-c3ccccc3)cc2)cc1	%	106
Cc1ccc2nc(CN(CCN(Cc3nc4ccc(C)cc4[nH]3)Cc3nc4ccc(C)cc4[nH]3)Cc3nc4ccc(C)cc4[nH]3)[nH]c2c1	%	-93.4
Cc1nc2c(-c3cnc(N)nc3)nc(N3CCOCC3)nc2n1C(C)C	%	-2.93

Now, please, on to the next compound.
Query: Reported growth, compound Cc1ccc(NC(=O)Cn2nncc2CN2C(=O)CSC2=O)cc1C : ____
Result: 106

Attribution: PubChem BioAssay (NCI)
